target-entity: Prostaglandin G/H synthase 2 (Homo sapiens, UniProt P35354)
Sequence (P35354 whole entry): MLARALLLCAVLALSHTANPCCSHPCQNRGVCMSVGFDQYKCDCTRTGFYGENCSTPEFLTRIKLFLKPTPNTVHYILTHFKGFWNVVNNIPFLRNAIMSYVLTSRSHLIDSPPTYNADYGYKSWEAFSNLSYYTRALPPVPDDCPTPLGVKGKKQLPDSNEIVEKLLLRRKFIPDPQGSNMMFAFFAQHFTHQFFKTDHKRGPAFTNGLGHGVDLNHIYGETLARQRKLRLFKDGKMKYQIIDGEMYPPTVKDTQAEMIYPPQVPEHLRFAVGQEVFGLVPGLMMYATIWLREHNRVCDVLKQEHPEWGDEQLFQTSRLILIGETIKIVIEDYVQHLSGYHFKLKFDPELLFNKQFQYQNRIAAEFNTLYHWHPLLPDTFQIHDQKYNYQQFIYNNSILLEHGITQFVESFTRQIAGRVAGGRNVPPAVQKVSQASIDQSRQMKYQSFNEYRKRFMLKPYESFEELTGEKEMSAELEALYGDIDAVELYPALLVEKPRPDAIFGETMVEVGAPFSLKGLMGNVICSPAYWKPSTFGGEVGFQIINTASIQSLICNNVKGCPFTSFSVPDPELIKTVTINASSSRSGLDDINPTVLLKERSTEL
experimental-protocol: In vitro inhibitory activity against prostaglandin G/H synthase 2 stably transfected in Human whole blood (HWB) cell
Format: tissue-based
quantity-measured: pIC50
Answers are plain numbers, as −log10 of the molar value.

Examples with answers:
CS(=O)(=O)c1ccc(-c2cnn(CCC3CC3)c(=O)c2-c2ccc(F)cc2)cc1    5.54
CS(=O)(=O)c1ccc(-c2cnn(Cc3ccccc3)c(=O)c2OCC2CC2)cc1    6.44
CC(C1CC1)n1ncc(-c2ccc(S(C)(=O)=O)cc2)c(-c2ccc(F)cc2)c1=O (racemic)    6.15

[Q] Query: pIC50; subject: CS(=O)(=O)c1ccc(-c2cnn(Cc3ccccc3)c(=O)c2Sc2ccccc2)cc1
[A] 5.23

From: ChEMBL document CHEMBL1136575
